Measured Emax, listed per entry for reference.
- ASSAY_TARGET: GST tagged LXRbeta LBD (ligand binding domain) (Homo sapiens)
- Construct: purchased Invitrogen pv4658.pps
- Sequence (P55055 222-460 limits assumed): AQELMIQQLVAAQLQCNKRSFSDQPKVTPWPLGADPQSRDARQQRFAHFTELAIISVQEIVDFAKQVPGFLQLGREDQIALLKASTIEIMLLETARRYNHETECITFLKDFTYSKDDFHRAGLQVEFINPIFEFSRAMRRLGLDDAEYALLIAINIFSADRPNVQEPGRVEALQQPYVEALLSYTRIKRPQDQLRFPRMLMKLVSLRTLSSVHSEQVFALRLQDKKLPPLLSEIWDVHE
- METHOD_NOTES: LanthaScreen TR-FRET Liver X Receptor Coactivator Assay, LXR beta-LBD (co-activator recruitment; IP and % Emax relative to T0901317)
- Assay type: biochemical
- TEST_SETTINGS: efficacy at max dose in relation to reference T0901317, LXR beta-LBD; read-out: LXR beta actiivty at max dose (%)
MEASUREMENT_NAME: Emax (%)

- COc1cccc([C@@](O)(C(=O)N(C)CCCC2CCN(c3ccc(C(=O)N4CCC4)c(Cl)n3)CC2)C(F)(F)F)c1: 49
- COc1cccc([C@@](O)(C(=O)N(C)CCCC2CCN(c3ccc(C(N)=O)c(Cl)n3)CC2)C(F)(F)F)c1: 54
- COc1cccc([C@@](O)(C(=O)N(C)C2CC(CC3CCN(c4ccc(C(=O)N(C)C)c(C)n4)CC3)C2)C(F)(F)F)c1 (single isomer, unassigned): 42
- COc1cccc([C@@](O)(C(=O)N(C)CC[C@H]2CC23CCN(c2ccc(C(=O)N(C)C4CC4)c(Cl)n2)CC3)C(F)(F)F)c1: 57
- COc1cccc([C@@](O)(C(=O)N(C)CCCC2(F)CCN(c3ccc(C(=O)N(C)C)c(Cl)n3)CC2)C(F)(F)F)c1: 58
- COc1cccc([C@@](O)(C(=O)N(C)CC[C@H]2CC23CCN(c2ccc(C(=O)NC4CC4)c(Cl)c2)CC3)C(F)(F)F)c1: 52
- CNC(=O)c1ccc(N2CCC3(CC2)CC(CN(C)C(=O)[C@](O)(c2cccc(OC)c2)C(F)(F)F)C3)nc1Cl: 30
- CN(C)C(=O)c1ccc(N2CCC3(CC2)CC3CCN(C)C(=O)[C@](O)(c2cccc(OC(F)(F)F)c2)C(F)(F)F)cc1Cl (stereo in doubt): 64

Origin of the recorded values: patent US10961215B2
